Target: DepBRleg (Rhizobium leguminosarum, UniProt J0WHR2, Q294E)
Construct: N-terminal His-tag, pET28a (NdeI/HindIII), expressed in E. coli BL21 LOBSTR; about 39 kDa protomer; octamer
Experiment: tryptophan fluorescence quenching
Measured Kd, listed per entry.
ASSAY_ENDPOINT: Kd (µM)

ENTRY_SMILES	VALUE_MEASURED
NC(=O)C1=CN([C@@H]2O[C@H](COP(=O)(O)OP(=O)(O)OC[C@H]3O[C@@H](n4cnc5c(N)ncnc54)[C@H](O)[C@@H]3O)[C@@H](O)[C@H]2O)C=CC1	91.2
NC(=O)C1=CN([C@@H]2O[C@H](COP(=O)(O)OP(=O)(O)OC[C@H]3O[C@@H](n4cnc5c(N)ncnc54)[C@H](OP(=O)(O)O)[C@@H]3O)[C@@H](O)[C@H]2O)C=CC1	97.9
